test: chemical genetic growth profiling, strain panel (AID 1159580);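 also: tested at 20 µM; growth read once vehicle control cultures reached saturation at 30 °C; 1 = growth at the plate median or of vehicle wells; lower values mean less growth of the strain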; conditions: S. cerevisiae deletion strains, growth OD, locus YNL322C, strain KRE1 (second series), stronger effect = lower value
Screen size: about 5,500 compounds; about 2,000 (36%) were called active. Not shown: some 18% with an inconclusive outcome. The list shows a part of the results.
test-readout: normalized growth

[[record]]
compound = "COc1cc2c(cc1OC)-c1c(oc3cc(O)cc(O)c3c1=O)CO2"
assay_value = "1.02 (inactive)"

[[record]]
compound = "CC(C)C[C@@H](NC(=O)OCC1c2ccccc2-c2ccccc21)C(=O)O"
assay_value = "1 (inactive)"

[[record]]
compound = "CN(C)C(=O)C(CCN1CCC(O)(c2ccc(Cl)cc2)CC1)(c1ccccc1)c1ccccc1"
assay_value = "0.993 (inactive)"

[[record]]
compound = "C=CCSC[C@@H](N)C(=O)O"
assay_value = "1 (inactive)"

[[record]]
compound = "COC(=O)CC1C(C)(C)C(OC(C)=O)[C@@H]2[C@@H](OC(C)=O)[C@]34O[C@@]2(O)[C@]1(C)C3CC[C@]1(C)C4=CC(=O)O[C@H]1c1ccoc1 (some centres not stated)"
assay_value = "1.01 (inactive)"

[[record]]
compound = "O=C(O)c1ccccc1O"
assay_value = "0.974 (inactive)"

[[record]]
compound = "CCC(=O)OCC(=O)[C@@]1(OC(=O)CC)[C@@H](C)CC2C3CCC4=CC(=O)C=C[C@]4(C)C3(F)[C@@H](O)C[C@@]21C (some centres not stated)"
assay_value = "0.982 (inactive)"

[[record]]
compound = "COC(=O)[C@H]1[C@H]2C[C@H]3c4[nH]c5cc(OC)ccc5c4CCN3C[C@H]2C[C@@H](OC(=O)c2cc(OC)c(OC)c(OC)c2)[C@@H]1OC"
assay_value = "1.01 (inactive)"

[[record]]
compound = "CC1(C)S[C@@H]2[C@H](NC(=O)[C@@H](N)c3ccc(O)cc3)C(=O)N2[C@H]1C(=O)O"
assay_value = "1 (inactive)"

[[record]]
compound = "C=CCSSSCC=C"
assay_value = "0.974 (inactive)"

[[record]]
compound = "COC(=O)N/N=C\\c1c[n+]([O-])c2ccccc2[n+]1[O-]"
assay_value = "0.993 (inactive)"

[[record]]
compound = "COc1ccc(-c2cc(=O)c3c(O)cc(O)c(-c4cc(-c5cc(=O)c6c(O)cc(O)cc6o5)ccc4OC)c3o2)cc1"
assay_value = "1.02 (inactive)"

[[record]]
compound = "Oc1ccc2c3c1OC1[C@@H](O)CC[C@@]4(O)[C@@H](C2)N(CC2CCC2)CC[C@]314 (some centres not stated)"
assay_value = "0.999 (inactive)"

[[record]]
compound = "COP(N)(=O)SC (configuration not stated)"
assay_value = "1 (inactive)"

[[record]]
compound = "CCC(=O)OCC(=O)C1(OC(=O)CC)C(C)CC2C3CCC4=CC(=O)C=CC4(C)C3(Cl)C(O)CC21C (configuration not stated)"
assay_value = "0.971 (inactive)"

[[record]]
compound = "NS(=O)(=O)c1cc2c(cc1C(F)(F)F)NC(Cc1ccccc1)NS2(=O)=O (configuration not stated)"
assay_value = "0.992 (inactive)"

[[record]]
compound = "C[C@@H]1CCC2[C@](C)(CO)[C@@H](O)CC[C@]2(C)[C@@]12CC[C@@](CO)(CCO)O2 (some centres not stated)"
assay_value = "1 (inactive)"


====

assay: chemical genetic growth profiling, strain panel (AID 1159580); details: S. cerevisiae deletion strains, growth OD, locus YMR001C, strain CDC5, stronger effect = lower value
The campaign covered roughly 5,500 compounds. About 2,000 (36%) were called active. Inconclusive results (about 18%) are left out. The list shows a part of the results.
test-readout: normalized growth

[[record]]
molecule = "Cc1cc(-c2onc(C)c2C(=O)Sc2ccccc2)no1"
assay_value = "0.935 (inactive)"

[[record]]
molecule = "O=C1/C(=C/c2c[nH]c3ccccc23)CSc2ccccc21"
assay_value = "0.976 (inactive)"

[[record]]
molecule = "Clc1cccc(Cl)c1C1CC(c2ccccc2)=Nc2ccccc2S1 (centres undefined)"
assay_value = "0.986 (inactive)"

[[record]]
molecule = "N/C(=N/OC(=O)Nc1cccc(C(F)(F)F)c1)c1ccc(OC(F)(F)F)cc1"
assay_value = "0.983 (inactive)"

[[record]]
molecule = "O=C(O/N=C1/CCCc2[nH]c3ccccc3c21)C1CCCCC1"
assay_value = "0.966 (inactive)"

[[record]]
molecule = "O=C(NC(=S)NNc1ncc(C(F)(F)F)cc1Cl)c1cccs1"
assay_value = "0.549 (active)"

[[record]]
molecule = "FC(F)(F)Oc1ccc(OCc2n[nH]c(=S)n2-c2ccc(Cl)cc2)cc1"
assay_value = "0.983 (inactive)"

[[record]]
molecule = "CN(C)/C=C1\\CSc2ccc(Cl)cc2C1=O"
assay_value = "0.941 (inactive)"

[[record]]
molecule = "O=c1cc(CSc2ccc(Cl)cc2)c2ccc(O)cc2o1"
assay_value = "0.944 (inactive)"

[[record]]
molecule = "N#C/C(N=Cc1cc(Cl)cc(Cl)c1O)=C(\\C#N)N=Cc1cc(Cl)cc(Cl)c1O"
assay_value = "0.919 (inactive)"

[[record]]
molecule = "O=C1OC(c2ccccc2)=C/C1=C/c1ccccc1"
assay_value = "0.951 (inactive)"

[[record]]
molecule = "N/C(=N/OC(=O)c1ccc([N+](=O)[O-])cc1)c1c(Cl)cccc1Cl"
assay_value = "0.941 (inactive)"

[[record]]
molecule = "O=C(NNc1cc(C(F)(F)F)cc(C(F)(F)F)c1)c1cnc2n(c1=O)CCS2"
assay_value = "0.995 (inactive)"

[[record]]
molecule = "O=S(=O)(Nc1ccccc1Sc1c(Cl)cncc1Cl)c1ccc(Cl)cc1"
assay_value = "0.984 (inactive)"

[[record]]
molecule = "COc1ccc(N=C2SCC(c3ccc(C)cc3)=NN2CCO)cc1"
assay_value = "0.984 (inactive)"

[[record]]
molecule = "O=C1Nc2ccccc2/C1=C\\c1cccc2ccccc12"
assay_value = "0.957 (inactive)"

[[record]]
molecule = "O=c1[nH][nH]c(=O)n1CCCc1cc2cccc3ccc4cccc1c4c32"
assay_value = "0.992 (inactive)"

[[record]]
molecule = "N#Cc1nccnc1N1CCN(C(=O)Nc2cc(Cl)cc(Cl)c2)CC1"
assay_value = "0.968 (inactive)"

[[record]]
molecule = "COc1ccccc1N1CCN(C(=O)C(C)c2ccc(CC(C)C)cc2)CC1 (centres undefined)"
assay_value = "0.972 (inactive)"


====

assay: chemical genetic growth profiling, strain panel (AID 1159580);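 also: tested at 20 µM; growth read once vehicle control cultures reached saturation at 30 °C; 1 = growth at the plate median or of vehicle wells; lower values mean less growth of the strain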; conditions: S. cerevisiae deletion strains, growth OD, locus YGL173C, strain kem1
The whole screen tested about 5,500 compounds, of which about 2,000 (36%) were called active. Not shown: some 18% with an inconclusive outcome. Rule as the data show it: active = normalized growth mostly below about 0.91 (no sharp cut-off); inconclusive = no clear call, values can overlap the other calls; inactive = mostly above about 0.92. The list shows a part of the results.
Classes used: active, inactive

[[record]]
compound = "CC(C)(C)NCC(O)COc1cccc2c1C[C@H](O)[C@H](O)C2 (stereo partly drawn)"
class_name = "inactive"

[[record]]
compound = "O=C(O)c1ccccc1O"
class_name = "inactive"

[[record]]
compound = "CC(=O)N1CCN(c2ccc(OCC3CO[C@](Cn4ccnc4)(c4ccc(Cl)cc4Cl)O3)cc2)CC1 (stereo partly drawn)"
class_name = "active"

[[record]]
compound = "NC(=O)c1ccccc1O"
class_name = "inactive"

[[record]]
compound = "CC1(C)C(=O)CC[C@@]2(C)C1C[C@@H](O)[C@@]1(C)C3=CC(=O)O[C@@H](c4ccoc4)[C@]3(C)CCC21 (stereo partly drawn)"
class_name = "inactive"

[[record]]
compound = "C=CCSSCC=C"
class_name = "inactive"

[[record]]
compound = "CC1(C)S[C@@H]2[C@H](NC(=O)[C@@H](N)c3ccc(O)cc3)C(=O)N2[C@H]1C(=O)O"
class_name = "inactive"

[[record]]
compound = "CCC(=O)NCC[C@@H]1CCc2ccc3c(c21)CCO3"
class_name = "inactive"


====

test: chemical genetic growth profiling, strain panel (AID 1159580);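 also: tested at 20 µM; growth read once vehicle control cultures reached saturation at 30 °C; 1 = growth at the plate median or of vehicle wells; lower values mean less growth of the strain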; details: S. cerevisiae deletion strains, growth OD, locus YLR357W, strain rsc2, stronger effect = lower value
Screen size: about 5,500 compounds; about 2,000 (36%) were called active. Inconclusive results (about 18%) are left out. The list shows a part of the results.
Friendly reminder: normalized growth below 1 is true, at or above is false.

[[record]]
compound = "COc1nc(NC(C)C)nc(NC(C)C)n1"
class_name = "false"

[[record]]
compound = "C[C@H]1[C@H](C)CC[C@]2(C(=O)O)CC[C@]3(C)C(=CCC4[C@@]5(C)C[C@@H](O)[C@H](O)[C@@](C)(CO)C5[C@H](O)C[C@]43C)[C@H]12 (stereo not given in full)"
class_name = "true"


====

assay: chemical genetic growth profiling, strain panel (AID 1159580);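 also: tested at 20 µM; growth read once vehicle control cultures reached saturation at 30 °C; 1 = growth at the plate median or of vehicle wells; lower values mean less growth of the strain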; settings: S. cerevisiae deletion strains, growth OD, locus YLR027C, strain aat2, stronger effect = lower value
Hit rate of the full screen: of about 5,500 compounds, about 2,000 (36%) were called active. Inconclusive results (about 18%) are left out. The list shows a part of the results.
test-readout: normalized growth

[[record]]
molecule = "NC(=O)c1ccc([N+](=O)[O-])cc1Cl"
assay_value = 1.01

[[record]]
molecule = "CCC(=O)OCC(=O)C1(OC(=O)CC)C(C)CC2C3CCC4=CC(=O)C=CC4(C)C3(Cl)C(O)CC21C (stereo not given)"
assay_value = 0.962

[[record]]
molecule = "O=C(Oc1cccc2cccnc12)c1ccccc1"
assay_value = 0.95

[[record]]
molecule = "CC(=O)Oc1ccccc1C(=O)Oc1ccccc1C(=O)O"
assay_value = 1.01

[[record]]
molecule = "CC[C@@]1(O)C(=O)OCc2c1cc1n(c2=O)Cc2cc3ccccc3nc2-1"
assay_value = 0.653

[[record]]
molecule = "N#Cc1c(Cl)cccc1Cl"
assay_value = 0.959

[[record]]
molecule = "CC(C)C[C@@H](NC(=O)OCC1c2ccccc2-c2ccccc21)C(=O)O"
assay_value = 1

[[record]]
molecule = "COC1=CC(=O)C=C(OC)C1=O"
assay_value = 0.997

[[record]]
molecule = "NC(=O)c1cc([N+](=O)[O-])cc([N+](=O)[O-])c1"
assay_value = 0.989

[[record]]
molecule = "CCC(=O)OCC(=O)[C@@]1(OC(=O)CC)[C@@H](C)CC2C3CCC4=CC(=O)C=C[C@]4(C)C3(F)[C@@H](O)C[C@@]21C (stereo not given in full)"
assay_value = 0.999

